Settings: in 1,4-dioxane, 333.97 K
Test readout: solubility (mole fraction)

1. CCc1ccc(C(=O)c2ccccc2C(=O)O)cc1; 0.0353

* * *

Conditions: in isopropanol, 303.99 K
Test readout: solubility (mole fraction)

1) CCc1ccc(C(=O)c2ccccc2C(=O)O)cc1; 0.0174

* * *

Settings: in NMP, 303.76 K
Test readout: solubility (mole fraction)

1. CCc1ccc(C(=O)c2ccccc2C(=O)O)cc1; 0.26

* * *

Settings: in benzene, 313.15 K
Test readout: solubility (mole fraction)

1) CCc1ccc(C(=O)c2ccccc2C(=O)O)cc1; 0.0228

* * *

Conditions: in acetone, 299.83 K
Test readout: solubility (mole fraction)

1. CCc1ccc(C(=O)c2ccccc2C(=O)O)cc1; 0.0054
